- Method summary: Clearance in rat at 1 mg/kg, iv relative to hepatic blood flow
- Format: ADME, organism-based, Liver
- Assay setup: in vivo
Reported endpoint: clearance

- Compound smiles: "O=C1c2cc(-c3ccnc(NC4CCOCC4)n3)cn2CCCN1[C@H](CO)c1ccccc1"
  Reported endpoint: "clearance"
  Reported result: "79 mL/min/kg"

* * *

- Method summary: Oral bioavailability in rat at 250 mg/kg
- Type: ADME, organism-based
- Assay setup: in vivo

- Compound smiles: "O=C1c2cc(-c3ccnc(NC4CCOCC4)n3)cn2CCCN1[C@H](CO)c1ccccc1"
  bioavailability: "< 10%"
